Reference source for all entries: patent US20250223342A1

biological target: T1, cynomolgus monkey serum albumin (cynomolgus monkey, UniProt A2V9Z4 25-608); assay: SPR (Biacore 3000), cyno albumin on chip, Fc-ABDEG fusion, pH 7.4
T1 construct: also called cyno albumin; CSA
reported.metric: R0 pH 7.4 (RU)

{"columns": ["binder", "val"],
 "data": [
  ["11C03 CDR2-V12 fused at the C-terminus of Fc-ABDEG (Fc fusion, not shown: a dimerising Fc or GST; small tags and cut ends) QLQVVESGGGLVQAGGSLRLSCAASERTFVAYPMGWFRQAPEKEREFVAGISWFAGATTDAADSVEGRFTISRDNAKNTAYLQMNNLKPEDTAVYYCAISHQLPGGRPGRDMDSYSYWGHGTQVTVSS", 1.35],
  ["11C03 CDR2-V10 fused at the C-terminus of Fc-ABDEG (Fc fusion, not shown: a dimerising Fc or GST; small tags and cut ends) QLQVVESGGGLVQAGGSLRLSCAASERTFVAYPMGWFRQAPEKEREFVAGISWFAGATADYADSVEGRFTISRDNAKNTAYLQMNNLKPEDTAVYYCAISHQLPGGRPGRDMDSYSYWGHGTQVTVSS", 5.65],
  ["11C03 CDR2-V5 fused at the C-terminus of Fc-ABDEG (Fc fusion, not shown: a dimerising Fc or GST; small tags and cut ends) QLQVVESGGGLVQAGGSLRLSCAASERTFVAYPMGWFRQAPEKEREFVAGISWAAGATTDYADSVEGRFTISRDNAKNTAYLQMNNLKPEDTAVYYCAISHQLPGGRPGRDMDSYSYWGHGTQVTVSS", 1.1],
  ["11C03 CDR2-V4 fused at the C-terminus of Fc-ABDEG (Fc fusion, not shown: a dimerising Fc or GST; small tags and cut ends) QLQVVESGGGLVQAGGSLRLSCAASERTFVAYPMGWFRQAPEKEREFVAGISAFAGATTDYADSVEGRFTISRDNAKNTAYLQMNNLKPEDTAVYYCAISHQLPGGRPGRDMDSYSYWGHGTQVTVSS", 2.77],
  ["11C03 CDR1-V2 fused at the C-terminus of Fc-ABDEG (Fc fusion, not shown: a dimerising Fc or GST; small tags and cut ends) QLQVVESGGGLVQAGGSLRLSCAASERTFVAAPMGWFRQAPEKEREFVAGISWFAGATTDYADSVEGRFTISRDNAKNTAYLQMNNLKPEDTAVYYCAISHQLPGGRPGRDMDSYSYWGHGTQVTVSS", 2.11],
  ["11C03 parental fused at the C-terminus of Fc-ABDEG (Fc fusion, not shown: a dimerising Fc or GST; small tags and cut ends) QLQVVESGGGLVQAGGSLRLSCAASERTFVAYPMGWFRQAPEKEREFVAGISWFAGATTDYADSVEGRFTISRDNAKNTAYLQMNNLKPEDTAVYYCAISHQLPGGRPGRDMDSYSYWGHGTQVTVSS", 33],
  ["11C03 CDR2-V3 fused at the C-terminus of Fc-ABDEG (Fc fusion, not shown: a dimerising Fc or GST; small tags and cut ends) QLQVVESGGGLVQAGGSLRLSCAASERTFVAYPMGWFRQAPEKEREFVAGIAWFAGATTDYADSVEGRFTISRDNAKNTAYLQMNNLKPEDTAVYYCAISHQLPGGRPGRDMDSYSYWGHGTQVTVSS", 2.6],
  ["11C03 CDR2-V2 fused at the C-terminus of Fc-ABDEG (Fc fusion, not shown: a dimerising Fc or GST; small tags and cut ends) QLQVVESGGGLVQAGGSLRLSCAASERTFVAYPMGWFRQAPEKEREFVAGASWFAGATTDYADSVEGRFTISRDNAKNTAYLQMNNLKPEDTAVYYCAISHQLPGGRPGRDMDSYSYWGHGTQVTVSS", 1.2],
  ["11C03 CDR1-V3 fused at the C-terminus of Fc-ABDEG (Fc fusion, not shown: a dimerising Fc or GST; small tags and cut ends) QLQVVESGGGLVQAGGSLRLSCAASERTFVAYAMGWFRQAPEKEREFVAGISWFAGATTDYADSVEGRFTISRDNAKNTAYLQMNNLKPEDTAVYYCAISHQLPGGRPGRDMDSYSYWGHGTQVTVSS", 5.2]
]}
